testTarget: DNA primase (UniProt P0ABS7)
Sequence (P0ABS7 whole entry): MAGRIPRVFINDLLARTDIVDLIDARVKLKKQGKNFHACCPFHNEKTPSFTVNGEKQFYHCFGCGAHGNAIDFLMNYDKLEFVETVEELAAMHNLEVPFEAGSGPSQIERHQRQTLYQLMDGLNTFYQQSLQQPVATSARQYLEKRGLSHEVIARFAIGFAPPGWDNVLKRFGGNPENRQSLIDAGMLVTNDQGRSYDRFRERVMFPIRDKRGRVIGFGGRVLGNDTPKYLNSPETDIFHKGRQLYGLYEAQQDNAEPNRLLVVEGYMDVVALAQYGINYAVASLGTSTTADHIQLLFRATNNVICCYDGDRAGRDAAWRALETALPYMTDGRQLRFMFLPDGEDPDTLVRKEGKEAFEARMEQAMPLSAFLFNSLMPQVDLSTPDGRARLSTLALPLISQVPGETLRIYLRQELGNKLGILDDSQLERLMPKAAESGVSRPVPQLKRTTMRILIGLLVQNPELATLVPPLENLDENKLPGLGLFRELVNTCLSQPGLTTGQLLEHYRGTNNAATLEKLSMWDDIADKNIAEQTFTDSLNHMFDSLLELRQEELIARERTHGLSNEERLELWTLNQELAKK
assayOverview: relative enzymatic activity vs untreated control (fraction); higher = less inhibition
assaySetup: 100 µM; incubation time: 2 h at 37 C
// values below are reported relative enzymatic activity

# compound, testTarget, relative enzymatic activity
rows = [
    ("CCN1CCN(c2cc3c(cc2F)c(=O)c(C(=O)O)cn3C2CC2)CC1", "DNA primase (UniProt P0ABS7)", 0.617),
    ("CC1(C)S[C@@H]2[C@H](NC(=O)[C@H](NC(=O)N3CCNC3=O)c3ccccc3)C(=O)N2[C@H]1C(=O)O", "DNA primase (UniProt P0ABS7)", 0.864),
    ("NC[C@H]1O[C@H](O[C@H]2[C@H](O)[C@@H](O[C@H]3O[C@H](CO)[C@@H](O)[C@H](N)[C@H]3O)[C@H](N)C[C@@H]2N)[C@H](N)C[C@@H]1O", "DNA primase (UniProt P0ABS7)", 0.572),
    ("COc1cc2c(cc1OC)C(=O)C(CC1CCN(Cc3ccccc3)CC1)C2.Cl (centres undefined)", "DNA primase (UniProt P0ABS7)", 0.713),
]

---

testTarget: MurA (UniProt Q3YX52)
Sequence (Q3YX52 whole entry): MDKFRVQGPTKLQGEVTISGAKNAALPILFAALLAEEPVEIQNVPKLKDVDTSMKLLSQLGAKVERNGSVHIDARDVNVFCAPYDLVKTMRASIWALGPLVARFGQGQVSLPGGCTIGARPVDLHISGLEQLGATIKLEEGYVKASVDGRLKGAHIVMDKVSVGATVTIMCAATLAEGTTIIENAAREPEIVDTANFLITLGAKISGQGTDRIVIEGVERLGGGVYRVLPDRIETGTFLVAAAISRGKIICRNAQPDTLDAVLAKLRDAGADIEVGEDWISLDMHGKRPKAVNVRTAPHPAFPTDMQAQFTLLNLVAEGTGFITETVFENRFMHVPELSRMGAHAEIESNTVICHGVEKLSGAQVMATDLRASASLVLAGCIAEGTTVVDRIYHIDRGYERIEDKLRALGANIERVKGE
assayOverview: relative enzymatic activity vs untreated control (fraction); higher = less inhibition
assaySetup: 100 µM; incubation time: 2 h at 37 C
// values below are reported relative enzymatic activity

# molecule, relative enzymatic activity
measured = [
    ("NCC[C@H](O)C(=O)N[C@@H]1C[C@H](N)[C@@H](O[C@H]2O[C@H](CN)[C@@H](O)[C@H](O)[C@H]2O)[C@H](O)[C@H]1O[C@H]1O[C@H](CO)[C@@H](O)[C@H](N)[C@H]1O", 0.326),
    ("CC(N)O.Cc1cc(CC(C)CC(C)(C)C)n(O)c(=O)c1 (centres undefined)", 0.844),
    ("O=c1[nH]c(=O)n([C@H]2C[C@H](O)[C@@H](CO)O2)cc1F", 0.762),
    ("COc1ccc2c(c1OC)C(=O)OC2C1c2c(cc3c(c2OC)OCO3)CCN1C.Cl (centres undefined)", 0.417),
]

---

testTarget: DNA ligase (UniProt B1XA82)
Sequence (B1XA82 whole entry): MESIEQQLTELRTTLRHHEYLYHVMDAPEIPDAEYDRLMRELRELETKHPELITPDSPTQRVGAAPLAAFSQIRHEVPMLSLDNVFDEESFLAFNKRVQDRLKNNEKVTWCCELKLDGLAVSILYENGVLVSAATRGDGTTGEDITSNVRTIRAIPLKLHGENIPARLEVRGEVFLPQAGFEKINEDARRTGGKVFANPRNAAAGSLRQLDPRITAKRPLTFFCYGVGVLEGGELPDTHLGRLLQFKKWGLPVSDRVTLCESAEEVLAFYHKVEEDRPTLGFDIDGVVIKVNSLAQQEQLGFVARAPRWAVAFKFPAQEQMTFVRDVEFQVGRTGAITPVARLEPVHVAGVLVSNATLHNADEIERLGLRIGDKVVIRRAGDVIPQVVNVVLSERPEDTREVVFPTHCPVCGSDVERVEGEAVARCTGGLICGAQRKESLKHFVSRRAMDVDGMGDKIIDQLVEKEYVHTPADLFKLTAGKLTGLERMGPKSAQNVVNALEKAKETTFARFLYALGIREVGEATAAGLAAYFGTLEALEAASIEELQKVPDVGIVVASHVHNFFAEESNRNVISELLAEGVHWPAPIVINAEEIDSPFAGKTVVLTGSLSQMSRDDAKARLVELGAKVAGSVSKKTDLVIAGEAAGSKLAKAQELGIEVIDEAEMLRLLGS
assayOverview: relative enzymatic activity vs untreated control (fraction); higher = less inhibition
assaySetup: 100 µM; incubation time: 2 h at 37 C

# compound, relative enzymatic activity
records = [
    ("CCOC(=O)CCC(=O)O[C@H]1[C@H](O[C@@H]2[C@@H](C)[C@H](O[C@H]3C[C@@](C)(OC)[C@@H](O)[C@H](C)O3)[C@@H](C)C(=O)O[C@H](CC)[C@@](C)(O)[C@H](O)[C@@H](C)C(=O)[C@H](C)C[C@@]2(C)O)O[C@H](C)C[C@@H]1N(C)C", 0.982),
    ("Cc1cc(C(C)(C)CC(C)(C)C)ccc1OCCOCC[N+](C)(C)Cc1ccccc1.[Cl-]", 1.09),
    ("CN(C)C1C(O)=C(C(N)=O)C(=O)C2(O)C(O)=C3C(=O)c4c(O)ccc(Cl)c4C(O)C3CC12.Cl (stereo unspecified)", 1.03),
    ("CCn1cc(C(=O)O)c(=O)c2cnc(N3CCNCC3)nc21", 0.92),
    ("Oc1ccc(Cl)c2cccnc12", 1.03),
    ("CC[C@H](C)C[C@H](C)CCCCCCCCC(=O)N[C@H]1C[C@@H](O)[C@@H](NCCN)NC(=O)[C@@H]2[C@@H](O)CCN2C(=O)[C@H]([C@H](O)CCN)NC(=O)[C@H]([C@H](O)[C@@H](O)c2ccc(O)cc2)NC(=O)[C@@H]2C[C@@H](O)CN2C(=O)[C@H]([C@@H](C)O)NC1=O", 0.699),
]

---

Test system: RNA polymerase
assayOverview: relative enzymatic activity vs untreated control (fraction); higher = less inhibition
assaySetup: 100 µM; incubation time: 2 h at 37 C
// values below are reported relative enzymatic activity

# compound, relative enzymatic activity
rows = [
    ("NC(=O)NN=Cc1ccc([N+](=O)[O-])o1", 0.8),
    ("CCn1cc(C(=O)O)c(=O)c2cc(F)c(N3CCN(C(=S)Nc4cc(C(F)(F)F)ccc4Cl)CC3)cc21", 1.17),
    ("Cl.O=C(O)c1cn(-c2ccc(F)cc2)c2cc(N3CCNCC3)c(F)cc2c1=O", 0.228),
    ("COc1cc(Cc2cnc(N)nc2N)cc(OC)c1OC", 0.887),
    ("CCC1OC(=O)C(C)C(OC2CC(C)(OC)C(O)C(C)O2)C(C)C(OC2OC(C)CC(N(C)C)C2O)C(C)(O)CC(C)CN(C)C(C)C(O)C1(C)O (stereo not drawn)", 0.843),
    ("Oc1c(Cl)cc(Cl)c(Cl)c1Cc1c(O)c(Cl)cc(Cl)c1Cl", 0.293),
    ("CC1CCc2c(N3CCC(O)CC3)c(F)cc3c(=O)c(C(=O)O)cn1c23 (stereo not drawn)", 0.85),
    ("CN(C)C1C(O)=C(C(N)=O)C(=O)C2(O)C(O)=C3C(=O)c4c(O)ccc(Cl)c4C(C)(O)C3CC12.Cl (stereo not drawn)", 0.822),
]

---

Test system: RNA polymerase
assayOverview: relative enzymatic activity vs untreated control (fraction); higher = less inhibition
assaySetup: 100 µM; incubation time: 2 h at 37 C

# itemSmiles, relative enzymatic activity
measured = [
    ("CN[C@H]1CN(c2ccc3c(=O)c(C(=O)O)cn(-c4nccs4)c3n2)C[C@@H]1OC", 0.769),
    ("C/C(=C\\C(=O)OCCCCCCCCC(=O)O)C[C@@H]1OC[C@H](C[C@@H]2O[C@H]2[C@@H](C)[C@H](C)O)[C@@H](O)[C@H]1O", 0.935),
    ("NCC[C@H](O)C(=O)N[C@@H]1C[C@H](N)[C@@H](O[C@H]2O[C@H](CN)[C@@H](O)[C@H](O)[C@H]2O)[C@H](O)[C@H]1O[C@H]1O[C@H](CO)[C@@H](O)[C@H](N)[C@H]1O", 0.699),
    ("CC(C)[C@@H](CC[C@@H](C)[C@H]1CC[C@H]2[C@@H]3[C@H](O)C[C@H]4C[C@@H](NCCCNCCCCN)CC[C@]4(C)[C@H]3CC[C@]12C)OS(=O)(=O)O", 0.14),
]

---

// values below are reported relative enzymatic activity
Tested on: DNA gyrase
assayOverview: relative enzymatic activity vs untreated control (fraction); higher = less inhibition
assaySetup: 100 µM; incubation time: 2 h at 37 C
reportedMetric: relative enzymatic activity

# compound, reportedMetric, quantitativeResult
rows = [
    ("COC1C=COC2(C)Oc3c(C)c(O)c4c(O)c(c(C=NN5CCN(C)CC5)c(O)c4c3C2=O)NC(=O)C(C)=CC=CC(C)C(O)C(C)C(O)C(C)C(OC(C)=O)C1C (stereo unspecified)", "relative enzymatic activity", 0.468),
    ("O=C(O)P(=O)(O)O", "relative enzymatic activity", 0.105),
    ("CC1CCC2(C)C(C=O)=CCCC2C1(C)CC1OC(O)C(=O)C12CO2 (stereo unspecified)", "relative enzymatic activity", 0.075),
    ("COC1(NC(=O)CSCC#N)C(=O)N2C(C(=O)[O-])=C(CSc3nnnn3C)CSC21.[Na+] (stereo unspecified)", "relative enzymatic activity", 0.762),
    ("Cn1sccc1=O", "relative enzymatic activity", 0.437),
    ("Cc1cc(C(C)(C)CC(C)(C)C)ccc1OCCOCC[N+](C)(C)Cc1ccccc1.[Cl-]", "relative enzymatic activity", 0.0681),
]

---

Test system: DNA gyrase
assayOverview: relative enzymatic activity vs untreated control (fraction); higher = less inhibition
assaySetup: 100 µM; incubation time: 2 h at 37 C
reportedMetric: relative enzymatic activity

# compound, testTarget, reportedMetric, quantitativeResult
rows = [
    ("CC1(C)S[C@@H]2[C@H](NC(=O)[C@H](N)c3ccccc3)C(=O)N2[C@H]1C(=O)OCOC(=O)[C@@H]1N2C(=O)C[C@H]2S(=O)(=O)C1(C)C", "DNA gyrase", "relative enzymatic activity", 0.828),
    ("NCCONC(=O)[C@@H]1CC[C@@H]2CN1C(=O)N2OS(=O)(=O)O", "DNA gyrase", "relative enzymatic activity", 0.796),
    ("CC1C(NC(=O)C(=NOC(C)(C)C(=O)O)c2csc(N)n2)C(=O)N1S(=O)(=O)O (stereo unspecified)", "DNA gyrase", "relative enzymatic activity", 0.879),
    ("NC(C(=O)NC1C(=O)N2C(C(=O)O)=C(Cl)CSC12)c1ccccc1 (stereo unspecified)", "DNA gyrase", "relative enzymatic activity", 1.09),
    ("COc1ccc2c(c1OC)C(=O)OC2C1c2c(cc3c(c2OC)OCO3)CCN1C.Cl (stereo unspecified)", "DNA gyrase", "relative enzymatic activity", 0.0862),
    ("CC(C)CCCC(=O)N[C@@H](CCNCS(=O)(=O)O)C(=O)N[C@H](C(=O)N[C@@H](CCNCS(=O)(=O)O)C(=O)N[C@H]1CCNC(=O)[C@H]([C@@H](C)O)NC(=O)[C@H](CCNCS(=O)(=O)O)NC(=O)[C@H](CCNCS(=O)(=O)O)NC(=O)[C@H](CC(C)C)NC(=O)[C@H](CC(C)C)NC(=O)[C@H](CCNCS(=O)(=O)O)NC1=O)[C@@H](C)O", "DNA gyrase", "relative enzymatic activity", 0.555),
]
